# TESTED_TARGET: T1, 4H850-AA
# T1 chain: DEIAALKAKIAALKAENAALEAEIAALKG
# MEASUREMENT_NOTES: two-hybrid library CCmax;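 further: natural log of median RNA to DNA barcode read ratio; higher means stronger binding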
# SETTINGS: mean of both orientations
Parameter threshold = -0.08. Response is y when interaction score meets or exceeds it, else n.

Req: Textbook exercise: given the entry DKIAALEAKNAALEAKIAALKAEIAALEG [4H2473-AA] , state whether its interaction score is greater than or equal to -0.08.
Resp: n

Req: Check the entry DKNAALEAKIAALKAENAALEAEIAALKG [4H3410-AA] : does interaction score equal or exceed -0.08?
Resp: n

Req: Identify whether the reported interaction score of the following binder is -0.08 or greater: DKNAALKAENAALEAKIAALKAEIAALEG [4H3753-AA]
Resp: n

Req: # bool: interaction score of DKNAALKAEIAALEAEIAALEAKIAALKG [4H3590-AA] >= -0.08
Resp: y
